- Tested on: TILN LAU 203
- Assay details: 51Cr release assay, TILN recognition of peptide on T2 cells, TILN LAU 203
- Details: read-out:; Table III; dose response, T2 cells
pEC50: −log10 of the molar value.
The reader will find reported pEC50 values listed item by item below.
Outcome measure: pEC50

{"Compound": "CC[C@H](C)[C@H](NC(=O)CNC(=O)[C@H](C)NC(=O)[C@H](C)NC(=O)[C@@H](N)Cc1ccccc1)C(=O)NCC(=O)N[C@H](C(=O)N[C@@H](CC(C)C)C(=O)N[C@H](C(=O)N[C@H](C(=O)O)C(C)C)[C@@H](C)O)[C@@H](C)CC [SEQ ID NO: 14]", "Value modifier": "=", "Endpoint result": 9.00}
{"Compound": "CC[C@H](C)[C@H](NC(=O)CNC(=O)[C@H](CCSC)NC(=O)[C@H](C)N)C(=O)NCC(=O)N[C@H](C(=O)N[C@@H](CC(C)C)C(=O)N[C@H](C(=O)N[C@H](C(=O)O)C(C)C)[C@@H](C)O)[C@@H](C)CC [SEQ ID NO: 6]", "Value modifier": "<", "Endpoint result": 6.00}

###

- Test system: TILN LAU 203
- Assay details: 51Cr release assay, TILN recognition of peptide on T2 cells, TILN LAU 203
- Details: read-out:; Table III; dose response, T2 cells
pEC50: −log10 of the molar value.

{"Compound string": "CC[C@H](C)[C@H](NC(=O)CNC(=O)[C@H](C)NC(=O)[C@@H](N)CCSC)C(=O)NCC(=O)N[C@H](C(=O)N[C@@H](CC(C)C)C(=O)N[C@H](C(=O)N[C@H](C(=O)O)C(C)C)[C@@H](C)O)[C@@H](C)CC", "Value modifier": "=", "pEC50": 8.10}
{"Compound string": "CC[C@H](C)[C@H](NC(=O)CNC(=O)[C@H](CC(C)C)NC(=O)[C@H](C)N)C(=O)NCC(=O)N[C@H](C(=O)N[C@@H](CC(C)C)C(=O)N[C@H](C(=O)N[C@H](C(=O)O)C(C)C)[C@@H](C)O)[C@@H](C)CC", "Value modifier": "<", "pEC50": 6.00}
{"Compound string": "CC[C@H](C)[C@H](NC(=O)CNC(=O)[C@H](CCSC)NC(=O)[C@H](C)NC(=O)[C@@H](N)CCC(=O)O)C(=O)NCC(=O)N[C@H](C(=O)N[C@@H](CC(C)C)C(=O)N[C@H](C(=O)N[C@H](C(=O)O)C(C)C)[C@@H](C)O)[C@@H](C)CC", "Value modifier": "<", "pEC50": 6.00}
{"Compound string": "CC[C@H](C)[C@H](NC(=O)CNC(=O)[C@H](CC(C)C)NC(=O)[C@H](C)NC(=O)[C@@H](N)CCC(=O)O)C(=O)NCC(=O)N[C@H](C(=O)N[C@@H](CC(C)C)C(=O)N[C@H](C(=O)N[C@H](C(=O)O)C(C)C)[C@@H](C)O)[C@@H](C)CC", "Value modifier": "<", "pEC50": 6.00}
{"Compound string": "CC[C@H](C)[C@H](NC(=O)CNC(=O)[C@H](C)NC(=O)[C@H](C)NC(=O)[C@@H](N)Cc1ccc(O)cc1)C(=O)NCC(=O)N[C@H](C(=O)N[C@@H](CC(C)C)C(=O)N[C@H](C(=O)N[C@H](C(=O)O)C(C)C)[C@@H](C)O)[C@@H](C)CC", "Value modifier": "=", "pEC50": 8.30}
